Sourced from PubChem BioAssay (NCI)

- Assay explanation: NCI Yeast Anticancer Drug Screen. Data for the mlh1 strain (AID 171);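 also: 0% = growth of vehicle-treated control cultures of the same strain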
- Assay setup: S. cerevisiae mlh1 strain growth inhibition; at 11.0 µM
Compounds without any hit were thinned out: in the full panel of roughly 79,000, 15% have a hit. Active and inactive are the calls of the source. Rule as the data show it: active = growth inhibition above about 70%; inactive = the rest.
Select the matching outcome among active, inactive

Q: What did this assay record as the result for CC(C)[N+]([O-])(CCCNc1c2ccccc2nc2cccc([N+](=O)[O-])c12)C(C)C ?
A: inactive

Q: Any idea what this test logged for O=CNc1ccc2c(c1)C(=O)c1ccccc1-2 ?
A: inactive

Q: Field: outcome | Entry: O=[n+]1c2ccc(Cl)cc2n([O-])c2ccc(Cl)cc21
A: inactive

Q: # lookup: test call for CCCCCCCCCCNC(=O)OCC
A: inactive

Q: Given CCc1ncnc2cc(OCC3CO3)c(OC)cc12 (stereo not drawn) , state the outcome it received in this test.
A: inactive

Q: Which outcome was entered for the compound CC1(Cl)CC(O)C2(CC1Br)C1(C)OC1C1OC1(Br)C2(C)C (stereo not drawn) in this test?
A: inactive

Q: Just curious, what result did O=C1c2ccccc2C(=O)c2c(NC3CCCCC3)ccc(Nc3ccc(S(=O)(=O)O)cc3)c21 get here?
A: inactive

Q: Call for entry CCCCCCCCC/C=C/C=C/C(=O)NCC(=O)NC1C(O)C(O)C(Nc2ncnc3nc[nH]c23)OC1C(O)CO (stereo not drawn) :
A: inactive

Q: Could you check what this test reported for O=[N+]([O-])c1ccc2c(c1)C(N1CCN(CCO)CC1)Cc1ccc(F)cc1S2 (stereo not drawn) ?
A: inactive

Q: Kindly provide the recorded test outcome for the following compound: O=C(O)CNc1ccc(Cl)c(Cl)c1
A: inactive

Q: Dear colleague, could you share the recorded outcome for COc1ccccc1C(=O)OCC1CCCN2CCCCC12 (stereo not drawn) when you have a moment?
A: active

Q: Check the results log: what was the call for CC(CC(C)(C)[N+](C)(C)C)[N+](C)(C)C (stereo not drawn) ?
A: inactive

Q: Each compound tested received a call. Report the one for CN(Cc1cnc2nc(N)nc(N)c2n1)c1ccc(C(=O)N[C@@H](CCC(=O)O)C(=O)O)cc1 .
A: inactive

Q: I'd appreciate the recorded outcome for C[C@H](CCC(=O)NN)[C@H]1CC[C@H]2[C@@H]3CC[C@@H]4C[C@H](O)CC[C@]4(C)[C@H]3CC[C@]12C from this test.
A: inactive

Q: What was the test verdict on COc1ccc(N=C2C(=O)Nc3ccc(Br)cc32)cc1 ?
A: inactive

Q: Test call for this compound, please: Cc1cc(I)ccc1N
A: inactive

Q: Which result was noted for this compound in the test: O=C1OC(=O)C2CCCC3CCCC1C32 (stereo not drawn)
A: active

Q: Call for entry NCCNc1ccc(NCCN)c2c1C(=O)c1c(O)ccc(O)c1C2=O :
A: inactive

---

- Assay explanation: NCI Yeast Anticancer Drug Screen. Data for the rad50 strain (AID 155);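 also: 0% = growth of vehicle-only cultures of the same strain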
- Assay setup: S. cerevisiae rad50 strain growth inhibition; at 50.0 µM (retest, dose inferred, filed as 5.0); active compounds read high
- Procedure: Growth inhibition of yeast strains with defined genetic alterations is measured as a screen for potential anti-cancer activity. Selected strains with alterations in DNA damage repair or cell cycle control were exposed to compounds and growth inhibition was measured relative to vehicle treated controls. The strain used in this assay is rad50
Compounds without any hit were thinned out: in the full panel of roughly 79,000, 15% have a hit.
Attribute measured: growth inhibition (%)
Answer format: numeric, % implied, no suffix.

Q: # query: growth inhibition of entry CN=C(N)N/N=C/c1ccc2c(c1)Cc1ccccc1-2
A: 64

Q: Name the reported growth inhibition value associated with the compound O=C(O)c1cccc(-c2c3ccc(=O)cc-3oc3cc(O)ccc23)c1
A: 99

Q: What growth inhibition value was documented for this compound, Cc1ccc(Cl)c2[nH]c(-c3ccccc3)cc(=O)c12 ?
A: 13

Q: Entry CCOC(=O)C1=C(C(=O)c2ccccc2)C(c2ccccc2[N+](=O)[O-])C(C(=O)c2ccccc2)=C(C(=O)OCC)N1 : reported growth inhibition = ?
A: 60

Q: Give the measured growth inhibition of COc1cc(C2SCC(=O)N2c2nnc(C(F)(F)F)s2)cc(OC)c1OC (stereo not given) .
A: -18
